test system: SEM cells; assay: cell viability relative to DMSO control; higher = less cytotoxic; conditions: HPLM + 10% dialyzed FBS; 48 h; 0.000781 µM

# compound, cell viability
data = [
    ("C[C@](O)(CS(=O)(=O)c1ccc(F)cc1)C(=O)Nc1ccc(C#N)c(C(F)(F)F)c1", "93.9%"),
    ("NC1=C(Cl)C(=CC=N1)OC2=C(F)C=C(NC(=O)\\C3=C\\N\\C=C(C3=O)\\C4=CC=C(F)C=C4)C=C2", "118%"),
    ("Cc1c(C)n(Cc2ccc(-c3ccccc3C(=O)O)cc2)c2ccc(C(=O)N[C@@H](C)c3ccc([N+](=O)[O-])cc3)cc12", "106%"),
    ("CN1CCN(C2=Nc3cc(Cl)ccc3Nc3ccccc32)CC1", "85.6%"),
    ("C[C@H]1C[C@@H]2[C@H](CC[C@@]3(C)[C@H]2CC[C@]3(OC(C)=O)C(C)=O)[C@@]\\4(C)CCC(=O)\\C=C14", "64.9%"),
    ("OC[C@@H](O)[C@@H](O)[C@H](O)[C@@H](O)CO", "68.4%"),
    ("ClC1=CC=C(C=C1)C(C#N)C2=C(Cl)C=C(C=C2Cl)N3\\N=C/C(=O)NC3=O (centres undefined)", "87.4%"),
    ("CC(C)OC(=O)C(C(=O)OC(C)C)=C1S\\C=C/S1", "112%"),
    ("CNC(=O)c1ccc(N2C(=S)N(c3cnc(C#N)c(C(F)(F)F)c3)C(=O)C23CCC3)cc1F", "92.3%"),
]

====

test system: P12-Ichikawa; test: cell viability relative to DMSO control; higher = less cytotoxic; details: HPLM + 10% dialyzed FBS; 48 h; 0.00234 µM
cell viability by entry:
measurement name: cell viability

# molecule, measurement name, result
data = [
    ("CCOC(=O)[C@@H](N)Cc1ccc(-c2cc(O[C@H](c3ccc(Cl)cc3-n3ccc(C)n3)C(F)(F)F)nc(N)n2)cc1.O=C(O)CNC(=O)c1ccccc1", "cell viability", "110%"),
    ("CNCCCC12CCC(c3ccccc31)c1ccccc12", "cell viability", "95.7%"),
    ("C[C@H]1C[C@@H]2[C@H](CC[C@@]3(C)[C@H]2CC[C@]3(OC(C)=O)C(C)=O)[C@@]\\4(C)CCC(=O)\\C=C14", "cell viability", "105%"),
    ("O=C(C=CC#Cc1cccc(N[S+](=O)([O-])c2ccccc2)c1)NO", "cell viability", "113%"),
    ("CC(C)(C)NC(=O)Nc1cccc(Nc2ncc(F)c(NC(C)(C)CO)n2)c1", "cell viability", "110%"),
    ("C[C@H]1COC2=C3N1\\C=C(C(O)=O)/C(=O)C3=CC(=C2N4CCN(C)CC4)F", "cell viability", "116%"),
    ("C[N]1C=C(C=N1)C2=C3\\C=N/NC(=O)C4=C3C(=CC(=C4)NC(=O)[C@H](N)C5CCCCC5)[NH]2", "cell viability", "103%"),
    ("CCc1ccc(CCOc2ccc(CC3SC(=O)NC3=O)cc2)nc1 (stereo unspecified)", "cell viability", "118%"),
    ("O=C(c1ccc(F)cc1)N1CCC[C@H](c2nc(-c3ccc(F)cc3)no2)C1", "cell viability", "121%"),
    ("CNC(=O)c1ccc2cc(C3(O)CCn4cncc43)ccc2c1 (stereo unspecified)", "cell viability", "127%"),
    ("S=C(NCc1ccc2c(c1)OCO2)N1CCN(c2ncnc3c2oc2ccccc23)CC1", "cell viability", "111%"),
]
